biological target: human P2X7 receptor (Homo sapiens, UniProt Q99572, R270H/Y155H); test: Evaluation of human P2X7 receptor inhibitory activity (Yo-Pro uptake, BzATP stimulation, FLIPR TETRA); type: cell-based; conditions: 1321N1 cells stably expressing human P2X7 receptor; BzATP stimulation, Yo-Pro uptake; read-out: IC50 (antagonistic activity for the human P2X7 receptor), class symbol
pIC50: −log10 of the molar value.
Value kind: pIC50

Molecular string	Target desc	pIC50
COc1cc(C)c(Nc2nc(=O)c(OC)cn2Cc2ccc(F)c(F)c2)cc1C	human P2X7 receptor (Homo sapiens, UniProt Q99572, R270H/Y155H)	> 8.00
COc1cn(Cc2cccc(Cl)c2)c(Nc2cc(C)c(C)cc2C)nc1=O	human P2X7 receptor (Homo sapiens, UniProt Q99572, R270H/Y155H)	> 8.00
CCc1ccc(F)cc1Nc1nc(=O)c(OC)cn1Cc1cccc(Cl)c1	human P2X7 receptor (Homo sapiens, UniProt Q99572, R270H/Y155H)	7.00 to 8.00

Kindly note: human P2X7 receptor (Homo sapiens, UniProt Q99572, R270H/Y155H), COc1cn(Cc2ccc(F)c(Cl)c2)c(Nc2cccc3sccc23)nc1=O , pIC50 value reported: > 8.00

Kindly note: human P2X7 receptor (Homo sapiens, UniProt Q99572, R270H/Y155H), COc1cn(Cc2cccc(Cl)c2)c(Nc2cccc(OC(F)F)c2C)nc1=O , pIC50 value reported: 7.00 to 8.00

Kindly note: human P2X7 receptor (Homo sapiens, UniProt Q99572, R270H/Y155H), COc1cn(Cc2ccccc2)c(Nc2cc(Cl)cc(Cl)c2Cl)nc1=O , pIC50 value reported: 7.00 to 8.00

Kindly note: human P2X7 receptor (Homo sapiens, UniProt Q99572, R270H/Y155H), COc1cn(Cc2cccc(Cl)c2)c(Nc2cc(-c3nnco3)ccc2C)nc1=O , pIC50 value reported: 7.00 to 8.00

Kindly note: human P2X7 receptor (Homo sapiens, UniProt Q99572, R270H/Y155H), CCc1cc(OC)c(OC)cc1Nc1nc(=O)c(OC)cn1Cc1ccccc1 , pIC50 value reported: > 8.00

----------
Target: human P2X7 receptor (Homo sapiens, UniProt Q99572, R270H/Y155H)
Experiment: Evaluation of human P2X7 receptor inhibitory activity (Yo-Pro uptake, BzATP stimulation, FLIPR TETRA)
Type: cell-based
Conditions: 1321N1 cells stably expressing human P2X7 receptor; BzATP stimulation, Yo-Pro uptake; read-out: IC50 (antagonistic activity for the human P2X7 receptor), class symbol
Protocol: Stably expressing cell line (1321N1 cell transfected with the human P2X7 receptor gene (GenBank accession number NM_002562.5 including T606C and G952A SNP)) was used. […] Measurement of fluorescence intensity by FLIPR TETRA was started. […] Changing values of fluorescence intensity by the compound of the present invention were calculated by difference between maximum and minimum fluorescence intensity for 20 minutes. Inhibition ratios (%) were calculated from the following equation: […]
Value kind: IC50

Compound	Target desc	IC50
CCc1ccc(OC)cc1Nc1nc(=O)c(OC)cn1Cc1cccc(F)c1	human P2X7 receptor (Homo sapiens, UniProt Q99572, R270H/Y155H)	10 to 100 nM
COc1cn(Cc2cc(C)cc(C)c2)c(Nc2cccc(Cl)c2C)nc1=O	human P2X7 receptor (Homo sapiens, UniProt Q99572, R270H/Y155H)	500 to 1000 nM
COc1cn(Cc2ccccc2)c(Nc2ccccc2C)nc1=O	human P2X7 receptor (Homo sapiens, UniProt Q99572, R270H/Y155H)	500 to 1000 nM
COc1cn(Cc2ccccc2)c(Nc2cc(-c3nnco3)ccc2C)nc1=O	human P2X7 receptor (Homo sapiens, UniProt Q99572, R270H/Y155H)	10 to 100 nM
COc1cn(Cc2cccc(C)c2)c(Nc2cccc(Cl)c2C)nc1=O	human P2X7 receptor (Homo sapiens, UniProt Q99572, R270H/Y155H)	10 to 100 nM
COc1cn(Cc2cc(F)ccc2F)c(Nc2cccc(Cl)c2C)nc1=O	human P2X7 receptor (Homo sapiens, UniProt Q99572, R270H/Y155H)	10 to 100 nM

What the record says about COc1cn(Cc2ccccc2)c(Nc2cccc3c2CCNC3)nc1=O : IC50 is 500 to 1000 nM

What the record says about COc1cn(Cc2ccccc2)c(Nc2cccc(C)c2C)nc1=O : IC50 is 10 to 100 nM

What the record says about Cc1c(Cl)cccc1Nc1nc(=O)c(C#N)cn1Cc1ccc(F)cc1 : IC50 is 10 to 100 nM

What the record says about COc1cn(Cc2ccc(F)c(F)c2)c(Nc2cc(C)ccc2C)nc1=O : IC50 is < 10 nM

What the record says about COc1cc(C)cc(Nc2nc(=O)c(OC)cn2Cc2ccc(F)c(Cl)c2)c1C [Compound I-0424] : IC50 is < 10 nM

What the record says about COc1cn(Cc2cc(F)cc(F)c2)c(Nc2cccc(C)c2C)nc1=O : IC50 is < 10 nM

What the record says about COc1cn(Cc2ccccc2)c(Nc2cccc(C(F)(F)F)c2C)nc1=O : IC50 is 10 to 100 nM

----------
biological target: human P2X7 receptor (Homo sapiens, UniProt Q99572, R270H/Y155H); test: Evaluation of human P2X7 receptor inhibitory activity (Yo-Pro uptake, BzATP stimulation, FLIPR TETRA); type: cell-based; conditions: antagonistic activity for the human P2X7 receptor; read-out: IC50
Value kind: IC50

// known answers, use as guide
Molecular string	IC50
CCOC(=O)c1cn(Cc2ccc(F)c(F)c2)c(Nc2cc(C)c(OC)cc2C)nc1=O	< 10 nM
COc1cc(C)c(Nc2nc(=O)ccn2Cc2cc(F)c(F)c(F)c2)cc1OC	10 to 100 nM
COc1cn(Cc2ccccc2)c(Nc2cc(C)c(F)cc2C)cc1=O	500 to 1000 nM

Kindly note: human P2X7 receptor (Homo sapiens, UniProt Q99572, R270H/Y155H), COc1cc(C)c(Nc2nc(=O)c(OC)cn2Cc2cc(F)cc(F)c2)cc1Cl , IC50 value reported: < 10 nM

----------
IC50 values by entry
biological target: human P2X7 receptor (Homo sapiens, UniProt Q99572, R270H/Y155H); assay: Evaluation of human P2X7 receptor inhibitory activity (Yo-Pro uptake, BzATP stimulation, FLIPR TETRA); assay type: cell-based; conditions: 1321N1 cells stably expressing human P2X7 receptor; BzATP stimulation, Yo-Pro uptake; read-out: IC50 (antagonistic activity for the human P2X7 receptor), class symbol

// known answers, use as guide
Compound	IC50
COc1cc(Nc2nc(=O)c(OC)cn2Cc2ccc(F)c(F)c2)c(C)cc1Cl	< 10 nM
COc1cc(Nc2nc(=O)c(F)cn2Cc2ccc(F)c(Cl)c2)c(C)cc1Cl	< 10 nM
COc1cn(Cc2ccccc2)c(Nc2c(Cl)cccc2Cl)nc1=O	500 to 1000 nM
CCc1cc(Cl)ccc1Nc1nc(=O)c(OC)cn1Cc1ccc(F)c(Cl)c1	< 10 nM
COc1cn(Cc2cc(F)cc(F)c2)c(Nc2cc(S(C)(=O)=O)c(C)cc2C)nc1=O	10 to 100 nM
COc1cn(Cc2ccc(F)cc2)c(Nc2cc(C)c(Cl)cc2C)nc1=O	< 10 nM
Cc1cccc(Nc2nc(=O)c(Cl)cn2Cc2ccccc2)c1C	10 to 100 nM
COc1cn(Cc2ccccc2)c(Nc2ccc(OC(C)C)cc2C)nc1=O	100 to 500 nM
COc1cn(Cc2ccccc2)c(NCc2ccccc2C)nc1=O	100 to 500 nM
Cc1c(Cl)cccc1Nc1nc(=O)c(CC(=O)NCCO)cn1Cc1ccccc1	100 to 500 nM

What the record says about COc1cc(C)c(Nc2nc(=O)c(F)cn2Cc2ccc(F)c(Cl)c2)cc1OC : IC50 is < 10 nM

What the record says about CCc1cc(Cl)ccc1Nc1nc(=O)c(OC)cn1Cc1cc(F)cc(F)c1 : IC50 is 10 to 100 nM

What the record says about COc1cn(Cc2ccccc2)c(Nc2ccc(Cl)cc2C)nc1=O : IC50 is 10 to 100 nM

What the record says about COc1cn(Cc2ccccc2)c(Nc2ccc(OC(F)F)cc2C)nc1=O : IC50 is 100 to 500 nM

What the record says about COc1cc(C)c(Nc2nc(=O)c(OC)cn2Cc2cc(F)cc(Cl)c2)cc1OC : IC50 is < 10 nM

What the record says about COc1cn(Cc2ccc(F)c(F)c2)c(Nc2cccc(Cl)c2C)nc1=O : IC50 is < 10 nM

----------
biological target: human P2X7 receptor (Homo sapiens, UniProt Q99572, R270H/Y155H); assay: Evaluation of human P2X7 receptor inhibitory activity (Yo-Pro uptake, BzATP stimulation, FLIPR TETRA); type: cell-based; details: 1321N1 cells stably expressing human P2X7 receptor; BzATP stimulation, Yo-Pro uptake; read-out: IC50 (antagonistic activity for the human P2X7 receptor), class symbol
IC50 values by entry

// known answers, use as guide
Compound	IC50
COc1cn(Cc2ccccc2)c(Nc2cc(OC(C)C)ccc2C)nc1=O [Compound I-0320]	100 to 500 nM
Cc1c(Cl)cccc1Nc1nc(=O)c(NC(=O)OC(C)(C)C)cn1Cc1ccccc1 [Compound I-0021]	100 to 500 nM
COc1cn(Cc2ccc(F)c(Cl)c2)c(Nc2ccc(OC(F)(F)F)cc2C)nc1=O [Compound I-0241]	10 to 100 nM

Kindly note: human P2X7 receptor (Homo sapiens, UniProt Q99572, R270H/Y155H), CCc1c(Nc2nc(=O)c(F)cn2Cc2ccc(F)cc2)cc(OC)cc1OC [Compound I-0314] , IC50 value reported: < 10 nM

Kindly note: human P2X7 receptor (Homo sapiens, UniProt Q99572, R270H/Y155H), COc1cc(C)c(Nc2nc(=O)c(F)cn2Cc2cccc(Cl)c2)cc1C [Compound I-0348] , IC50 value reported: < 10 nM

Kindly note: human P2X7 receptor (Homo sapiens, UniProt Q99572, R270H/Y155H), COc1cn(Cc2cc(F)cc(Cl)c2)c(Nc2cccc(Cl)c2C)nc1=O [Compound I-0285] , IC50 value reported: 10 to 100 nM
